Values compiled from ChEMBL document CHEMBL4152317.

targetEntity: Serine protease 1 (Bos taurus, UniProt P00760)
Sequence (P00760 whole entry): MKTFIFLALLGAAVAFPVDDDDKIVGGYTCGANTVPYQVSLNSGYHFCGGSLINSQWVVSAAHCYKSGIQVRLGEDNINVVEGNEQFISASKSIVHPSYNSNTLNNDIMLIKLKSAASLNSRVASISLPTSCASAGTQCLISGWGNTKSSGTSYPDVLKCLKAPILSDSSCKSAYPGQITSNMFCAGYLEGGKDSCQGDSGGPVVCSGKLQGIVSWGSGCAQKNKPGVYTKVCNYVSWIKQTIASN
Where a SMILES comes first, the peptide text is derived from it. Bridges are numbered along the chain shown (N, C = ends). [ ]: non-standard residue; d: D form. Bip = N[C@@H](Cc1ccc(-c2ccccc2)cc1)C(=O)O
readoutKind: Ki (nM)
The reply should be a number in nM, with the unit left off.

Some entries whose results are on file:
molecule	Ki, nM
CC[C@H](C)[C@@H]1NC(=O)[C@@H]2CCCN2C(=O)[C@@H]2CCCN2C(=O)CNC(=O)[C@H](CO)NC(=O)[C@H](CCCCN)NC(=O)[C@H]([C@@H](C)O)NC(=O)[C@@H]2CSSC[C@H](NC1=O)C(=O)N[C@@H](Cc1ccccc1)C(=O)N1CCC[C@H]1C(=O)N[C@@H](CC(=O)O)C(=O)NCC(=O)N[C@@H](CCCNC(=N)N)C(=O)N2 (cyclo(CFPDGRCTKSGPPI); disulfide 1-7)	81
CC[C@H](C)[C@@H]1NC(=O)[C@@H]2CCCN2C(=O)[C@@H]2CCCN2C(=O)[C@H](Cc2ccc(-c3ccccc3)cc2)NC(=O)[C@H](CO)NC(=O)[C@H](CCCNC(=N)N)NC(=O)[C@H]([C@@H](C)O)NC(=O)[C@@H]2CSSC[C@H](NC1=O)C(=O)N[C@@H](Cc1ccccc1)C(=O)N1CCC[C@H]1C(=O)N[C@@H](CC(=O)O)C(=O)NCC(=O)N[C@@H](CCCNC(=N)N)C(=O)N2 (cyclo([Bip]PPICFPDGRCTRS); disulfide 5-11)	0.17

Consider now this further molecule.
Request: Report Ki, nothing else, for this molecule: CC[C@H](C)[C@@H]1NC(=O)[C@@H]2CCCN2C(=O)[C@@H]2CCCN2C(=O)CNC(=O)[C@H](CO)NC(=O)[C@H](CCCNC(=N)N)NC(=O)[C@H]([C@@H](C)O)NC(=O)[C@@H]2CSSC[C@H](NC1=O)C(=O)N[C@@H](Cc1ccccc1)C(=O)N1CCC[C@H]1C(=O)N[C@@H](CC(=O)O)C(=O)NCC(=O)N[C@@H](CCCNC(=N)N)C(=O)N2 (cyclo(CFPDGRCTRSGPPI); disulfide 1-7)
Result: 196

* * *

targetEntity: Trypsin-3 (Homo sapiens)
runDescription: Potency index, ratio of SFTI-1 Ki to test compound Ki for recombinant human mesotrypsin
Where a SMILES comes first, the peptide text is derived from it. Bridges are numbered along the chain shown (N, C = ends). [ ]: non-standard residue; d: D form. 2Nal = N[C@@H](Cc1ccc2ccccc2c1)C(=O)O
readoutKind: Ratio Ki
Form rule: numeric answer, no unit written next to it.

molecule	Ratio Ki
CC[C@H](C)[C@@H]1NC(=O)[C@@H]2CCCN2C(=O)[C@@H]2CCCN2C(=O)[C@H](Cc2ccccc2)NC(=O)[C@H](CO)NC(=O)[C@H](CCCCN)NC(=O)[C@H]([C@@H](C)O)NC(=O)[C@@H]2CSSC[C@H](NC1=O)C(=O)N[C@@H](Cc1ccccc1)C(=O)N1CCC[C@H]1C(=O)N[C@@H](CC(=O)O)C(=O)NCC(=O)N[C@@H](CCCNC(=N)N)C(=O)N2 (cyclo(CFPDGRCTKSFPPI); disulfide 1-7)	110
CC[C@H](C)[C@@H]1NC(=O)[C@@H]2CCCN2C(=O)[C@@H]2CCCN2C(=O)CNC(=O)[C@H](CO)NC(=O)[C@H](CCCNC(=N)N)NC(=O)[C@H]([C@@H](C)O)NC(=O)[C@@H]2CSSC[C@H](NC1=O)C(=O)N[C@@H](Cc1ccccc1)C(=O)N1CCC[C@H]1C(=O)N[C@@H](CC(=O)O)C(=O)NCC(=O)N[C@@H](CCCNC(=N)N)C(=O)N2 (cyclo(CFPDGRCTRSGPPI); disulfide 1-7)	13
CC[C@H](C)[C@@H]1NC(=O)[C@@H]2CCCN2C(=O)[C@@H]2CCCN2C(=O)[C@H](Cc2ccc3ccccc3c2)NC(=O)[C@H](CO)NC(=O)[C@H](CCCCN)NC(=O)[C@H]([C@@H](C)O)NC(=O)[C@@H]2CSSC[C@H](NC1=O)C(=O)N[C@@H](Cc1ccccc1)C(=O)N1CCC[C@H]1C(=O)N[C@@H](CC(=O)O)C(=O)NCC(=O)N[C@@H](CCCNC(=N)N)C(=O)N2 (cyclo([2Nal]PPICFPDGRCTKS); disulfide 5-11)	191

Consider now this further molecule.
Request: Please look at CC[C@H](C)[C@@H]1NC(=O)[C@@H]2CCCN2C(=O)[C@@H]2CCCN2C(=O)[C@H](Cc2ccc3ccccc3c2)NC(=O)[C@H](CO)NC(=O)[C@H](CCCNC(=N)N)NC(=O)[C@H]([C@@H](C)O)NC(=O)[C@@H]2CSSC[C@H](NC1=O)C(=O)N[C@@H](Cc1ccccc1)C(=O)N1CCC[C@H]1C(=O)N[C@@H](CC(=O)O)C(=O)NCC(=O)N[C@@H](CCCNC(=N)N)C(=O)N2 (cyclo([2Nal]PPICFPDGRCTRS); disulfide 5-11) and tell me its recorded Ratio Ki on Trypsin-3 (Homo sapiens).
Result: 131
